Cited source: patent US6559101B2

// values below are reported Postemergence herbicidal activity AMARE
# System: pigweed (Amaranthus retroflexus)
# ASSAY_PROTOCOL: Postemergence herbicidal activity
# Type: in vivo
# CONDITIONS: 31.3 ppm; scored after 2 weeks; 0 no injury, 100 complete kill
MEASURE_NAME: Postemergence herbicidal activity AMARE (%)

MOLECULE | REPORTED_RESULT
COc1cc(OC)n2nc(NS(=O)(=O)c3c(C(F)(F)C(F)(F)F)ccnc3OC)nc2n1 [Compound 18] | 100
COc1cc(OC)n2nc(NS(=O)(=O)c3cc(Cl)ccc3OCCF)nc2n1 [Compound 13] | 95
COc1cc(OC)n2nc(NS(=O)(=O)c3c(OCC(F)F)cccc3C(F)(F)F)nc2n1 [Compound 8] | 100
COc1cc(OC)n2nc(NS(=O)(=O)c3cc(C)ccc3OC)nc2n1 [Compound 6] | 100

* * *

# Test system: cocklebur (Xanthium strumarium)
# ASSAY_PROTOCOL: Preemergence herbicidal activity
# Format: in vivo
# CONDITIONS: 17.5 g/Ha; scored after 3 weeks; 0 no injury, 100 complete kill or no germination
Please mark yes (1) if the recorded Preemergence herbicidal activity XANST is equal to or greater than 80%, and no (0) if it falls below.

COMPOUND_SMILES | CATEGORY_LABEL
CCOc1cccc(C(F)(F)F)c1S(=O)(=O)Nc1nc2nc(OC)cc(OC)n2n1 | no (0)
COc1cc(OC)n2nc(NS(=O)(=O)c3c(Cl)cccc3Cl)nc2n1 | yes (1)
COc1cc(OC)n2nc(NS(=O)(=O)c3c(I)ccnc3OC)nc2n1 | no (0)
COc1cc(OC)n2nc(NS(=O)(=O)c3c(OC(C)C)cccc3C(F)(F)F)nc2n1 | yes (1)
COc1cc(OC)n2nc(NS(=O)(=O)c3c(OC)cccc3C(F)(F)F)nc2n1 | yes (1)
COc1cc(OC)n2nc(NS(=O)(=O)c3c(OCCF)cccc3C(F)(F)F)nc2n1 | yes (1)
COc1cc(OC)n2nc(NS(=O)(=O)c3c(C(F)(F)F)ccnc3OC)nc2n1 | yes (1)

* * *

# Test system: wild buckwheat (Polygonum convolvulus)
# ASSAY_PROTOCOL: Postemergence herbicidal activity
# Assay type: in vivo
# CONDITIONS: 62.5 ppm; scored after 2 weeks; 0 no injury, 100 complete kill
// values below are reported Postemergence herbicidal activity POLCO

MOLECULE | UNITS_OF_MEASURE | Postemergence herbicidal activity POLCO
COc1cc(OC)n2nc(NS(=O)(=O)c3c(OC(C)C)cccc3C(F)(F)F)nc2n1 [Compound 11] | % | 100
COc1cc(OC)n2nc(NS(=O)(=O)c3cc(Cl)ccc3OC)nc2n1 [Compound 5] | % | 98
COC(=O)c1cccc(OC)c1S(=O)(=O)Nc1nc2nc(OC)cc(OC)n2n1 [Compound 7] | % | 85
CCc1ccc(OC)c(S(=O)(=O)Nc2nc3nc(OC)cc(OC)n3n2)c1 [Compound 9] | % | 50
COc1cc(OC)n2nc(NS(=O)(=O)c3c(OCC(F)(F)F)cccc3C(F)(F)F)nc2n1 [Compound 12] | % | 98

* * *

# System: giant foxtail (Setaria faberi)
# ASSAY_PROTOCOL: Postemergence herbicidal activity
# Assay type: in vivo
# CONDITIONS: 31.3 ppm; scored after 2 weeks; 0 no injury, 100 complete kill
// values below are reported Postemergence herbicidal activity SETFA

COMPOUND_SMILES | UNITS_OF_MEASURE | Postemergence herbicidal activity SETFA
COc1cc(OC)n2nc(NS(=O)(=O)c3cc(C)ccc3OC)nc2n1 | % | 95
COc1cc(OC)n2nc(NS(=O)(=O)c3c(OCC(F)F)cccc3C(F)(F)F)nc2n1 | % | 100
COc1cc(OC)n2nc(NS(=O)(=O)c3c(C(F)(F)C(F)(F)F)ccnc3OC)nc2n1 | % | 85
COc1cc(OC)n2nc(NS(=O)(=O)c3cc(Cl)ccc3OCCF)nc2n1 | % | 90

* * *

# System: blackgrass (Alopecurus myosuroides)
# ASSAY_PROTOCOL: Preemergence herbicidal activity
# Type: in vivo
# CONDITIONS: 35 g/Ha; scored after 3 weeks; 0 no injury, 100 complete kill or no germination

COMPOUND_SMILES | Preemergence herbicidal activity ALOMY, %
CCOc1ccc(C)cc1S(=O)(=O)Nc1nc2nc(OC)cc(OC)n2n1 | 30
COc1cc(OC)n2nc(NS(=O)(=O)c3cc(Cl)ccc3OCCF)nc2n1 | 95
COc1cc(OC)n2nc(NS(=O)(=O)c3c(C(F)(F)C(F)(F)F)ccnc3OC)nc2n1 | 100
COc1cc(OC)n2nc(NS(=O)(=O)c3cc(C)ccc3OC)nc2n1 | 100
CCOc1nccc(C(F)(F)F)c1S(=O)(=O)Nc1nc2nc(OC)cc(OC)n2n1 | 100

* * *

// values below are reported Preemergence herbicidal activity XANST
# Test system: cocklebur (Xanthium strumarium)
# ASSAY_PROTOCOL: Preemergence herbicidal activity
# Format: in vivo
# CONDITIONS: 35 g/Ha; scored after 3 weeks; 0 no injury, 100 complete kill or no germination
MEASURE_NAME: Preemergence herbicidal activity XANST (%)

COMPOUND_SMILES | ASSAYED_SYSTEM | MEASURE_NAME | REPORTED_RESULT
COc1cc(OC)n2nc(NS(=O)(=O)c3cc(C)ccc3OC)nc2n1 | cocklebur (Xanthium strumarium) | Preemergence herbicidal activity XANST | 70
CCOc1nccc(C(F)(F)F)c1S(=O)(=O)Nc1nc2nc(OC)cc(OC)n2n1 | cocklebur (Xanthium strumarium) | Preemergence herbicidal activity XANST | 85
COc1cc(OC)n2nc(NS(=O)(=O)c3c(C(F)(F)C(F)(F)F)ccnc3OC)nc2n1 | cocklebur (Xanthium strumarium) | Preemergence herbicidal activity XANST | 70
COc1cc(OC)n2nc(NS(=O)(=O)c3cc(Cl)ccc3OCCF)nc2n1 | cocklebur (Xanthium strumarium) | Preemergence herbicidal activity XANST | 50

* * *

# Tested on: cocklebur (Xanthium strumarium)
# ASSAY_PROTOCOL: Postemergence herbicidal activity
# Type: in vivo
# CONDITIONS: 7.8 ppm; scored after 2 weeks; 0 no injury, 100 complete kill

COMPOUND_SMILES | Postemergence herbicidal activity XANST [%]
COc1cc(OC)n2nc(NS(=O)(=O)c3c(Cl)cccc3Cl)nc2n1 | 85
CCOc1cccc(C(F)(F)F)c1S(=O)(=O)Nc1nc2nc(OC)cc(OC)n2n1 | 100
CCOc1ccc(C)cc1S(=O)(=O)Nc1nc2nc(OC)cc(OC)n2n1 | 50
COc1cc(OC)n2nc(NS(=O)(=O)c3c(C(F)(F)F)ccnc3OC)nc2n1 | 90

* * *

# Test system: cocklebur (Xanthium strumarium)
# ASSAY_PROTOCOL: Preemergence herbicidal activity
# Format: in vivo
# CONDITIONS: 17.5 g/Ha; scored after 3 weeks; 0 no injury, 100 complete kill or no germination
// values below are reported Preemergence herbicidal activity XANST

COMPOUND_SMILES | Preemergence herbicidal activity XANST (%)
COc1cc(OC)n2nc(NS(=O)(=O)c3c(OCC(F)F)cccc3C(F)(F)F)nc2n1 | 80
COc1cc(OC)n2nc(NS(=O)(=O)c3c(OC)cccc3OC)nc2n1 | 80
COc1cc(OC)n2nc(NS(=O)(=O)c3c(OCC(F)(F)F)cccc3C(F)(F)F)nc2n1 | 80
